biological target: KRAS in AGS cells (KRAS G12D mutant cell line) or LS180 cells (KRAS G12D mutant cell line) (Homo sapiens, UniProt P01116, G12D); construct: CRL-187 (LS180) (so in the source); host or cells: AGS or LS180 cells; experiment: KRAS Western Blot (WB) assay; type: cell-based; conditions: KRAS degradation, 24 hours incubation, normalized to β-actin
Sequence (P01116 1-188 isoform P01116-2 G12D): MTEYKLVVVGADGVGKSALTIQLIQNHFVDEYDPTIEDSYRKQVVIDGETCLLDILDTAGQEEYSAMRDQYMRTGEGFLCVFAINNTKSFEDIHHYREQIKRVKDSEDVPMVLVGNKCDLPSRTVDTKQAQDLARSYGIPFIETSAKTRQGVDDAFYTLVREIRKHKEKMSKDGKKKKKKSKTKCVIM
metric-name: DC50

INSERT INTO assay_data (compound, metric_name, test_result) VALUES
  ('C#Cc1c(F)ccc2cc(O)cc(-c3ncc4c(N5CC6CCC(C5)N6)nc(OC[C@@]56CCCN5[C@H](COC(=O)NCCCCCCCCCCc5cccc7c5n(C)c(=O)n7C5CCC(=O)NC5=O)CC6)nc4c3F)c12 (some centres unmarked)', 'DC50', 'A (DC50 less than 1 μM)'),
  ('C#Cc1c(F)ccc2cc(O)cc(-c3ncc4c(N5CC6CCC(C5)N6)nc(OC[C@@]56CCCN5[C@H](COC(=O)NCCCCCCCCCCCc5cccc7c5n(C)c(=O)n7C5CCC(=O)NC5=O)CC6)nc4c3F)c12 (some centres unmarked)', 'DC50', 'A (DC50 less than 1 μM)');

###

target: KRAS in AGS cells (KRAS G12D mutant cell line) or LS180 cells (KRAS G12D mutant cell line) (Homo sapiens, UniProt P01116, G12D); construct: CRL-187 (LS180) (so in the source); host or cells: AGS or LS180 cells; assay: KRAS Western Blot (WB) assay; type: cell-based; conditions: KRAS degradation, 24 hours incubation, normalized to β-actin
metric-name: DC50

INSERT INTO assay_data (compound, test_result) VALUES
  ('C#Cc1c(F)ccc2cc(O)cc(-c3ncc4c(N5CC6CCC(C5)N6)nc(OC[C@@]56CCCN5[C@H](COC(=O)N5CCC(OCCCc7cccc8c7n(C)c(=O)n8C7CCC(=O)NC7=O)CC5)CC6)nc4c3F)c12 (stereo partly drawn)', 'A (DC50 less than 1 μM)'),
  ('C#Cc1c(F)ccc2cc(O)cc(-c3ncc4c(N5CC6CCC(C5)N6)nc(OC[C@@]56CCCN5[C@H](COC(=O)NCCCCCCCCCc5cccc7c5n(C)c(=O)n7C5CCC(=O)NC5=O)CC6)nc4c3F)c12 (stereo partly drawn)', 'A (DC50 less than 1 μM)'),
  ('C#Cc1c(F)ccc2cccc(-c3ncc4c(N5CC6CCC(C5)N6)nc(OC[C@@]56CCCN5[C@H](COC(=O)NCCCCCCCCc5ccc7c(c5)n(C)c(=O)n7C5CCC(=O)NC5=O)CC6)nc4c3F)c12 (stereo partly drawn)', 'A (DC50 less than 1 μM)');

###

target: KRAS in AGS cells (KRAS G12D mutant cell line) or LS180 cells (KRAS G12D mutant cell line) (Homo sapiens, UniProt P01116, G12D); construct: CRL-187 (LS180) (so in the source); host or cells: AGS or LS180 cells; assay: KRAS Western Blot (WB) assay; format: cell-based; details: KRAS degradation, 24 hours incubation, normalized to β-actin
metric-name: DC50

INSERT INTO results (molecule, test_result) VALUES
  ('C#Cc1c(F)ccc2cccc(-c3ncc4c(N5CC6CCC(C5)N6)nc(OC[C@@]56CCCN5[C@H](COC(=O)N5CCC(OCCCc7cccc8c7n(C)c(=O)n8C7CCC(=O)NC7=O)CC5)CC6)nc4c3F)c12 (stereo partly shown) [Compound 031]', 'A (DC50 less than 1 μM)'),
  ('C#Cc1c(F)ccc2cc(O)cc(-c3ncc4c(N5CC6CCC(C5)N6)nc(OC[C@@]56CCCN5[C@H](COC(=O)NCCCCCCCCCCCc5ccc7c(c5)n(C)c(=O)n7C5CCC(=O)NC5=O)CC6)nc4c3F)c12 (stereo partly shown) [Compound 009]', 'A (DC50 less than 1 μM)');

These data points were gathered from patent US12404285B2.
